Data provenance is patent US11083725B2.

# Tested on: NHBE cells
# method: Biolog metabolic array: substrate use by NHBE cells with or without CA09 infection
# Format: cell-based, human
# protocolConditions: Virus (CA09-infected NHBE cells, MOI 1); 3 hr
Kindly supply the reported 590 nm absorbance normalized to zero hour (substrate use), 3 hr values for the records listed here.

compound	recordedResult
Nc1ncnc2c1ncn2[C@@H]1O[C@H](CO)[C@@H](O)[C@H]1O	1.60

Give 590 nm absorbance normalized to zero hour (substrate use), 3 hr for each of the items listed below.
1. O=C(O)CCC(=O)C(=O)O
2. CO[C@H]1O[C@H](CO)[C@@H](O)[C@H](O)[C@@H]1O [a-Methyl-D-Mannoside]

[0.45, 0.64]
